Data provenance: ChEMBL document CHEMBL1149509

- System: Mycobacterium tuberculosis
- ASSAY EXPLANATION: Antitubercular activity against Mycobacterium tuberculosis H37Rv
- Assay type: functional
REPORTED ENDPOINT: MIC

• c1ccc(CNc2c3c(nc4ccccc24)CCCC3)cc1 = > 12.5 µg/mL
• Clc1ccc(Oc2c3c(nc4ccccc24)CCCC3)c(Cl)c1 = > 12.5 µg/mL
• Clc1ccc(Oc2c3c(nc4ccccc24)CCCC3)cc1 = > 12.5 µg/mL
• Fc1ccc(Oc2c3c(nc4ccccc24)CCCC3)cc1 = > 12.5 µg/mL
• COc1ccc(Nc2c3c(nc4ccccc24)CCCC3)cc1 = > 12.5 µg/mL
• c1ccc2c(N3CCOCC3)c3c(cc2c1)CCCC3 = 12.5 µg/mL
